molecular target: Cytochrome P450 2C9 (Homo sapiens); test: Cytochrome panel assay with activity outcomes; settings: recombinant CYP, pro-luciferin dealkylation, luminescence, p450-cyp2c9; series mostly up to 57.1 µM
Screen size: about 16,000 compounds; about 4,000 (25%) were called active. Not shown: some 26% with an inconclusive outcome. The call rests on the fitted dose curve; in most records, active means well fitted curve in the direction sought with a large enough effect; inconclusive means small, poorly fitted or top-dose-only effect, or effect the other way; inactive means no such curve, though single readings can be large or run the other way. Only a sample is shown.
Classes to choose from: active, inactive

Request: Field: outcome | Entry: Cc1cc(C)c(NC(=O)C[C@H](CC(=O)O)c2cccc3ccccc23)c(C(=O)N2CCC3(CCCC3)CC2)c1
Result: inactive

Request: Assay result, entry COC(=O)[C@@]1(Cc2ccccc2)[C@H]2c3cc(C(=O)N4CCCC4)n(Cc4ccc(C(F)(F)F)nc4)c3C[C@H]2CN1C(=O)c1ccccc1 — outcome?
Result: active

Request: Test call, this compound: CCS(=O)(=O)Nc1ccc(C2=NN(C(=O)c3ccco3)C(c3ccc(C)cc3)C2)cc1 (stereo unspecified)
Result: active

Request: # outcome recorded in this test, key = CN1C(=O)/C(=N\OC(=O)c2cccc3ccccc23)c2ccccc21
Result: active

Request: How did this test come out for COc1ccc(NC(=O)CSc2nc(-c3ccc(C)cc3)cc(C(F)(F)F)c2C#N)cc1 ?
Result: active

Request: Returns: the outcome recorded for O=c1c2ccccc2c(-c2ccccc2)nn1Cc1ccc(Cl)cc1 in this assay.
Result: active

Request: Which outcome did this test record for the compound Nc1nc(Br)c2c(F)cccc2c1-c1ccc(F)cc1 ?
Result: active

Request: # outcome recorded in this test, key = O=c1c2ccccc2c(-c2ccccc2)nn1-c1ccc(Cl)c(Cl)c1
Result: active

Request: Recorded test outcome, item Cc1c(Cl)cnc(NC(=O)COC(=O)CCS(=O)(=O)c2ccccc2)c1Cl
Result: inactive

Request: What outcome does the record of this test show for Cc1ccc(Cn2cnc3c(nnn3Cc3ccc(Cl)cc3)c2=O)cc1 ?
Result: inactive

Request: Per the records of this test, what outcome belongs to C=CC[C@H](N)C(=O)O ?
Result: inactive

Request: Give the logged outcome of this assay for the following compound: O=C(O)CC[C@@H](C(=O)O)N1C(=O)c2ccccc2C1=O
Result: inactive

Request: Hey, what did the test say about COC(=O)[C@@]1(Cc2ccc(F)cc2)[C@H]2c3cc(C(=O)N(C)C)n(Cc4ccc(C(F)(F)F)nc4)c3C[C@H]2CN1C(=O)c1ccccc1 ?
Result: active

Request: Hello, I am checking results. What call was entered for Cn1c(=O)c(-c2ccc(Cl)cc2)nc2cnc(Nc3ccccc3)nc21 ?
Result: inactive

Request: Entry Cc1nc(SCC(=O)c2ccc(Cl)s2)c2oc3ccccc3c2n1 : call = ?
Result: active

Request: Outcome logged for CCc1nc(SCC(=O)c2ccc(Cl)s2)c2oc3ccccc3c2n1 in this assay:
Result: active

Request: Identify the outcome logged in this assay for the compound shown: CC(=O)c1c(N=CN(C)C)nc(C)nc1-c1ccccc1
Result: inactive

Request: Per the records of this test, what outcome belongs to Nc1nc(Br)c2c(F)cccc2c1-c1ccc(Cl)cc1 ?
Result: active

Request: # lookup: test call for COc1ncc2nc(-c3ccccc3)c(=O)n(-c3ccccc3)c2n1
Result: inactive

Request: // return assay outcome for O=C(O)CC(c1ccccc1)n1cnnn1 (stereo unspecified)
Result: inactive

Request: Answer briefly: the call reported for CCOC(=O)NCN1C(=O)C2C3C=CC(C3)C2C1=O (stereo unspecified) in this assay.
Result: inactive

----------
target: Cytochrome P450 2C9 (Homo sapiens) (UniProt P11712); assay: Cytochrome panel assay with activity outcomes; details: recombinant CYP, pro-luciferin dealkylation, luminescence, p450-cyp2c9; series mostly up to 57.1 µM
Sequence (P11712 whole entry, looked up): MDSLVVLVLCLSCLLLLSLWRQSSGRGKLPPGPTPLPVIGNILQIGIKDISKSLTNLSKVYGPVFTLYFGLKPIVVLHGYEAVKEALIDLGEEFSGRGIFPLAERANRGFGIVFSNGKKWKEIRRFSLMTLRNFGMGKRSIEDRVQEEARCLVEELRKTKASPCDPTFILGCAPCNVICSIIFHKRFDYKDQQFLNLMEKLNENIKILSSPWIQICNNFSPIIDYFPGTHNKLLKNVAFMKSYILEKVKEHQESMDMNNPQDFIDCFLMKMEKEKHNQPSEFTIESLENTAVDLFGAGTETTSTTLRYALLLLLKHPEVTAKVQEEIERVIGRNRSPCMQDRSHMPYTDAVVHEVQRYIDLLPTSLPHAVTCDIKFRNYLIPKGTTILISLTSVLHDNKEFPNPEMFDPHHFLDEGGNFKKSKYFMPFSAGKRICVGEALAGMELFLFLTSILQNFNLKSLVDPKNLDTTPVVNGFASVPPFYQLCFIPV
About 4,000 (25%) of roughly 16,000 compounds were called active. Another 26% or so got no clear call; they are omitted. The call rests on the fitted dose curve; in most records, active means well fitted curve in the direction sought with a large enough effect; inconclusive means small, poorly fitted or top-dose-only effect, or effect the other way; inactive means no such curve, though single readings can be large or run the other way. The list is a sample of the results.
Hi! Could you answer with just one of these? yes (1) for active, no (0) for inactive

Request: Please state the recorded outcome for this compound: COC(=O)c1ccc(C(=O)OC)c(NC(=S)N2CCN(c3ccccc3)CC2)c1
Result: yes (1)

Request: Outcome? COC(=O)c1cc(OC)c(OC)cc1NC(=S)N1CCN(C)CC1
Result: no (0)

Request: Please indicate how the test categorized COC(=O)c1ccc(N2CCN(c3ccccc3)CC2)c(NC(=O)C2CC2)c1 .
Result: no (0)

Request: For this compound, state the assay outcome: CCN(CC)CCc1nc(-c2ccccc2)no1
Result: no (0)

Request: Please let me know the test result on file for O=[N+]([O-])c1ccc(S(=O)(=O)Cc2ccccc2)c2nonc12 .
Result: yes (1)

Request: What is the recorded call for this compound in the test? O=[N+]([O-])c1cccc2c[nH]nc12
Result: no (0)

----------
Target: Cytochrome P450 2C9 (Homo sapiens) (UniProt P11712)
Experiment: Cytochrome panel assay with activity outcomes
Conditions: recombinant CYP, pro-luciferin dealkylation, luminescence, p450-cyp2c9; series mostly up to 57.1 µM
Method: The P450 gene superfamily is involved in the metabolism and clearance of xenobiotics. This assay used various human CYP P450 isozymes to measure the dealkylation of various pro-luciferin substrates to luciferin. The luciferin is then measured by luminescence after the addition of a luciferase detection reagent. […] Inhibitors and some substrates limit the production of luciferin, and decrease measured luminescence. […] 8, Detection, 1 sec, ViewLux luminescent read […]
Hit rate of the full screen: of about 16,000 compounds, about 4,000 (25%) were called active. Inconclusive results (about 26%) are left out. The call rests on the fitted dose curve; in most records, active means well fitted curve in the direction sought with a large enough effect; inconclusive means small, poorly fitted or top-dose-only effect, or effect the other way; inactive means no such curve, though single readings can be large or run the other way. These entries were drawn from the full list.
The categories you may choose from are true (1) (active), false (0) (inactive)

Request: Which result was noted for this molecule in the test: COc1ccc(-c2cnnn2-c2ccc(NC(=O)c3ccco3)cc2)cc1OC
Result: true (1)

Request: Identify the outcome logged in this assay for the molecule shown: O=C(Nc1ccc(-n2nncc2-c2ccco2)cc1)c1cc2ccccc2oc1=O
Result: true (1)

Request: Per the records of this test, what outcome belongs to c1ccc2cc(NCNc3ccc4ccccc4c3)ccc2c1 ?
Result: true (1)

Request: Answer briefly: the call reported for CC(C)Oc1cccc(C(=O)NC(=S)N2CCN(c3ccc(C(F)(F)F)cc3[N+](=O)[O-])CC2)c1 in this assay.
Result: true (1)

Request: State the result this test recorded for CC(=O)[C@@H]1CC[C@@H]2[C@@H]3C[C@H](C)C4=CC(=O)CC[C@@]4(C)[C@H]3[C@H](O)C[C@]21C .
Result: true (1)

Request: Name the outcome recorded for O=C(NCCN1CCN(C(=O)c2cc3ccccc3oc2=O)CC1)c1cc2ccccc2oc1=O in the assay.
Result: false (0)

Request: So what was the verdict on CC1CN(C(=S)NC(=O)c2ccc([N+](=O)[O-])cc2)CC(C)O1 (centres undefined) in this test?
Result: false (0)

Request: Assay outcome for COc1cccc(OC)c1C(=O)NC(=S)N1CCN(c2ccc(C(F)(F)F)cc2[N+](=O)[O-])CC1 : what was it?
Result: true (1)

Request: I'd appreciate the recorded outcome for COc1ccc(C2C(C(=O)N3CCN(C)CC3)c3ccccc3C(=O)N2C2CCCCC2)cc1 (centres undefined) from this test.
Result: false (0)

----------
biological target: Cytochrome P450 2C9 (Homo sapiens); assay: Cytochrome panel assay with activity outcomes; details: recombinant CYP, pro-luciferin dealkylation, luminescence, p450-cyp2c9; series mostly up to 57.1 µM
In all, about 16,000 compounds went through this assay and about 4,000 (25%) were called active. Not shown: some 26% with an inconclusive outcome. The call rests on the fitted dose curve; in most records, active means well fitted curve in the direction sought with a large enough effect; inconclusive means small, poorly fitted or top-dose-only effect, or effect the other way; inactive means no such curve, though single readings can be large or run the other way. These entries were drawn from the full list.
API: response.call in 1 for active, -1 for inactive

Request: Look up the recorded call for CCOC(=O)c1c(-c2ccccc2)cn2ccccc12 in this test.
Result: 1

Request: Name the outcome recorded for CC(NC(=O)OCc1ccccc1)C(=O)NCC1CCCO1 (stereo not given) in the assay.
Result: -1

Request: For this compound, state the assay outcome: CC(C)CC(C(=O)NCC1CCCO1)N(C(=O)Cn1nnc(-c2ccc(F)cc2)n1)c1ccccc1F (stereo not given)
Result: 1

Request: Hey, what did the test say about CN1CCN(c2ccc([N+](=O)[O-])cc2NC(=O)c2ccccc2Cl)CC1 ?
Result: -1

Request: Call for entry Cn1c(SC2CCCCC2=O)nnc1-c1ccncc1 (stereo not given) :
Result: -1
